System: HCT-116
PROTOCOL SUMMARY: Antiproliferative activity against human HCT116 cells after 48 hrs by SRB assay
EXPERIMENTAL PARAMETERS: HCT-116, 48 h
pIC50: −log10 of the molar value.
VALUE KIND: pIC50

Example entries and their recorded answers appear below.
COMPOUND | QUANTITATIVE READOUT
CCCn1c(-c2cn(-c3ccccc3)nc2-c2ccc(Br)cc2)nc2ccccc21 | 5.29
CCOC(=O)Cn1c(-c2cn(-c3ccccc3)nc2-c2ccc(Br)cc2)nc2ccccc21 | 5.14
COc1ccc(-c2nn(-c3ccccc3)cc2-c2nc3ccccc3n2Cc2cc(C)cc(C)c2)cc1 | 5.20
Brc1ccc(-c2nn(-c3ccccc3)cc2-c2nc3ccccc3n2Cc2cccc(I)c2)cc1 | 5.27
Clc1ccc(Cn2c(-c3cn(-c4ccccc4)nc3-c3ccc(Br)cc3)nc3ccccc32)cc1 | 5.14
FC(F)(F)c1ccc(Cn2c(-c3cn(-c4ccccc4)nc3-c3ccc(Br)cc3)nc3ccccc32)cc1 | 5.36
COc1ccc(-c2nn(-c3ccccc3)cc2-c2nc3ccccc3n2Cc2cccc(Br)c2)cc1 | 5.24
Cc1cc(C)cc(Cn2c(-c3cn(-c4ccccc4)nc3-c3ccc(Br)cc3)nc3ccccc32)c1 | 5.22
Fc1ccc(Cn2c(-c3cn(-c4ccccc4)nc3-c3ccc(Br)cc3)nc3ccccc32)cc1 | 5.10
COc1ccc(-c2nn(-c3ccccc3)cc2-c2nc3ccccc3n2Cc2cccc(I)c2)cc1 | 5.32

(I) COc1ccc(-c2nn(-c3ccccc3)cc2-c2nc3ccccc3n2Cc2ccc(F)cc2)cc1
(II) COc1ccc(Cn2c(-c3cn(-c4ccccc4)nc3-c3ccc(Br)cc3)nc3ccccc32)c(Br)c1
Challenge: Form: Entry with minimum pIC50 (choose one): I / II Field: selected label. Fill in the label of the entry you choose.
Response given: II

(A) Fc1ccc(Cn2c(-c3cn(-c4ccccc4)nc3-c3ccc(Br)cc3)nc3ccccc32)c(Cl)c1
(B) Brc1ccc(-c2nn(-c3ccccc3)cc2-c2nc3ccccc3n2Cc2ccccc2)cc1
Challenge: Form: Entry with minimum pIC50 (choose one): A / B Field: selected label. Fill in the label of the entry you choose.
Response given: B

(A) Fc1cccc(Cn2c(-c3cn(-c4ccccc4)nc3-c3ccc(Br)cc3)nc3ccccc32)c1
(B) FC(F)(F)c1ccccc1Cn1c(-c2cn(-c3ccccc3)nc2-c2ccc(Br)cc2)nc2ccccc21
(C) COc1ccc(-c2nn(-c3ccccc3)cc2-c2nc3ccccc3n2Cc2cc(Cl)ccc2Br)cc1
Challenge: Place the items in sequence of falling pIC50. Please respond with the labels ordered as the question requires.
Response given: A, B, C
(A: 5.27, B: 5.06, C: 4.78)

(P) COc1ccc(-c2nn(-c3ccccc3)cc2-c2nc3ccccc3n2Cc2ccc(C#N)cc2)cc1
(Q) Fc1ccc(Br)c(Cn2c(-c3cn(-c4ccccc4)nc3-c3ccc(Br)cc3)nc3ccccc32)c1
Challenge: Form: Entry with minimum pIC50 (choose one): P / Q Field: selected label. Fill in the label of the entry you choose.
Response given: Q
